// merged dataset of IC50 values, system = Adenosine receptor A2b (Homo sapiens), multiple refs

query: State IC50 on Adenosine receptor A2b (Homo sapiens). Entry: O=C(Nc1cc2nc(C(F)F)nn2c(-c2ccco2)n1)C1CC1
result: < 0.01 µM

query: Under Adenosine receptor A2b (Homo sapiens), report IC50 for Cc1ccc(-c2nc(NC(=O)C3CC3)cn3c(C)cnc23)o1
result: 0.01 to 0.1 µM

query: Find the measured IC50 of COc1cc2nc(N)n3nc([C@@H]4CCCN(c5cnn([C@H]6CCC[C@]6(C)O)c5)C4)nc3c2cc1F (single isomer, unassigned) with Adenosine receptor A2b (Homo sapiens) as test system.
result: 0.113 µM

query: State IC50 on Adenosine receptor A2b (Homo sapiens). Entry: COc1cccc2c1nc(N)n1nc(C3(c4ccccc4)CC3)nc21
result: 1.98 µM

query: Answer briefly: IC50 recorded on Adenosine receptor A2b (Homo sapiens) for Cc1nc2nc(N[C@@H](C)c3cncc(F)c3)nc(C(=O)NC[C@H](C)O)c2s1
result: < 0.1 µM

query: Enter IC50 (test system Adenosine receptor A2b (Homo sapiens)) for CC(=O)N(C)C1CN(C(=O)c2nc(N[C@@H](C)c3cncc(F)c3)nc3nc(C)sc23)C1
result: 0.1 to 1 µM

query: Fetch value of IC50 on Adenosine receptor A2b (Homo sapiens) for Cc1c(-c2ncco2)nc(N)n2nc(CCN3CCc4nn(C5CC(F)(F)C5)cc4C3)nc12 .
result: 0.097 µM

query: Tell me its IC50 on Adenosine receptor A2b (Homo sapiens): Cc1nc2nc(N[C@@H](C)c3cncc(F)c3)nc(C(=O)N3CC(NC(=O)C4CCC4)C3)c2s1
result: < 0.1 µM

query: Tell me IC50 of Cc1nc2cc(NC(=O)C3CC3)nc(-c3ccc(S(=O)(=O)N(C)C)cc3)n2n1 when tested on Adenosine receptor A2b (Homo sapiens).
result: > 1 µM

query: Given Cc1c(-c2ncco2)nc(N)n2nc(CCN3CCn4c(cnc4C4CC4)C3)nc12 , report its IC50 on Adenosine receptor A2b (Homo sapiens).
result: 0.218 µM

query: // output IC50; input COc1cccc2c1nc(N)n1nc([C@H]3C[C@@](O)(c4ccc(C(C)(C)O)cn4)C3)nc21 ; system Adenosine receptor A2b (Homo sapiens)
result: 0.0021 µM

query: Check Adenosine receptor A2b (Homo sapiens) data and give IC50 for Cc1nc2cc(NC(=O)NCCN3CCOCC3)nc(-c3ccco3)n2n1 .
result: 0.01 to 0.1 µM

query: Report value: IC50, system: Adenosine receptor A2b (Homo sapiens), molecule: CN1CC(c2nc3cc(NC(=O)C4CC4)nc(-c4ccco4)n3n2)C1
result: > 1 µM

query: Would you please give the reported IC50 of Cn1cc(N2CCC[C@@H](c3nc4c5cc(Cl)cc(Cl)c5nc(N)n4n3)C2)cn1 with Adenosine receptor A2b (Homo sapiens)?
result: 0.471 µM

query: Retrieve IC50 on Adenosine receptor A2b (Homo sapiens); query Cc1cn2cc(NS(C)(=O)=O)nc(-c3ccco3)c2n1
result: > 1 µM

query: Provide the reported IC50 (system: Adenosine receptor A2b (Homo sapiens)) for Cc1nc2nc(N[C@@H](C)c3cncc(F)c3)nc(C(=O)NC[C@@H](C)O)c2s1
result: < 0.1 µM

query: Specify IC50 for Cc1nc2nc(N[C@@H](C)c3cncc(F)c3)nc(C(=O)N3CC(NC(=O)C4(C(F)(F)F)CC4)C3)c2s1 , system Adenosine receptor A2b (Homo sapiens).
result: < 0.1 µM

----------
Literature survey of pIC50 (system: UniProt:P29275).
In plain terms, pIC50 is the concentration in mol/L turned into minus its base-10 logarithm.

query: Entry COc1cc2nc(N)n3nc([C@@H]4CCCN(c5cn(CC(C)(C)O)nc5C5CC5)C4)nc3c2cc1F needs its pIC50 filled in; supply it.
result: 6.29

query: Return pIC50 for the following compound: Cc1c(-c2ncco2)nc(N)c2nc(Cc3cccc4c3ncn4CC(C)(C)O)nn12
result: 8.92

query: Hello, please tell me recorded pIC50 for this one: COc1cc2nc(N)n3nc([C@@H]4CCCN(c5cnn(C6CCCC6O)c5)C4)nc3c2cc1F (single isomer, unassigned)
result: 6.93

query: Output pIC50 of COc1cccc2c1nc(N)n1nc([C@H]3C[C@H](c4ccc(C(C)(C)N)cn4)C3)nc21
result: 8.66

----------
Please find below pIC50 measurements for Adenosine receptor A2b (Homo sapiens), combined from several publications.
Scale for pIC50: -log10 of concentration given in mol/L; no unit attached.

query: # return pIC50 of Cc1c(-c2ccc(F)c(F)c2F)nc(N)c2nc(Cc3ccccc3)nn12 (system: Adenosine receptor A2b (Homo sapiens))
result: 6.50

query: Tell me pIC50 of COc1cc2nc(N)n3nc(C4CCC(C)N(c5cn(CC(C)(C)O)nc5C)C4)nc3c2cc1F (single isomer, unassigned) when tested on Adenosine receptor A2b (Homo sapiens).
result: 6.32

query: Jot down pIC50 (Adenosine receptor A2b (Homo sapiens)) of Cc1c(-c2ncco2)nc(N)n2nc(CCN3CCc4c(cnn4C4CC(F)(F)C4)C3)nc12 .
result: 7.69

query: Provide measured pIC50 on Adenosine receptor A2b (Homo sapiens) for COc1ccc(F)cc1-c1nc(N)c2nc(Cc3ccccc3)nn2c1C please.
result: 5.60

query: State pIC50 on Adenosine receptor A2b (Homo sapiens). Entry: COc1cc(F)cc2c1nc(N)n1nc([C@@H]3CC[C@@H](C)N(c4cn(CC(C)(C)O)nc4C)C3)nc21 (single isomer, unassigned)
result: 5.54

query: Lab note: record pIC50 of COc1cccc2c1nc(N)n1nc([C@@H]3C[C@H]3c3ccccc3)nc21 tested on Adenosine receptor A2b (Homo sapiens).
result: 7.74

----------
Endpoint summary: pIC50, system: Adenosine receptor A2b (Homo sapiens, UniProt P29275), multiple sources combined.
The meaning of pIC50 here: minus log10 of the concentration in molar units.

query: Provide pIC50 value for the following compound: COc1cc2nc(N)n3nc([C@@H]4CCCN(c5cn(C6CCOCC6)nc5C(F)F)C4)nc3c2cc1F
result: 7.06

query: Tell me pIC50 reported for COc1cccc2c1nc(N)n1nc(C3CC3c3ccc(C)nc3)nc21 (stereo not drawn)
result: 7.11

query: Note pIC50 for the compound shown: Cc1c(-c2ncco2)nc(N)n2nc(CCN3CCn4c(cnc4C4CC(F)(F)C4)C3)nc12
result: 7.69

query: Fill in reported pIC50 for this entry: COc1cc(F)cc(-c2nc(N)c3nc(Cc4ccccc4)nn3c2C)c1
result: 6.87

query: Please look at this compound and report its pIC50: COc1cc(F)cc2c1nc(N)n1nc([C@H]3C[C@](O)(c4ccc(C(C)(C)O)nc4)C3)nc21
result: 5.60

----------
pIC50: −log10 of the molar value.
// cross-source set; read-out = pIC50; system = Adenosine receptor A2b (Homo sapiens, UniProt P29275)

query: Recall and state the measured pIC50 for Cc1cn2cc(NC(=O)C3CC3)nc(-c3ccc(C)o3)c2n1 .
result: 7.00 to 8.00

query: Note down pIC50 recorded for CC(=O)Nc1cc2nc(C)nn2c(-c2ccoc2)n1
result: < 6.00

query: Please look at this compound and report its pIC50: Cc1nc2cc(NC(=O)C3CC3)nc(-c3ccc(C(C)(C)C)o3)n2n1
result: < 6.00

query: Answer with reported pIC50 of CCC(=O)Nc1cn2cc(C)nc2c(-c2ccco2)n1
result: 7.00 to 8.00

query: Report pIC50 for Cc1nc2cc(NC(=O)C3CC3)nc(-c3ccco3)n2n1
result: > 8.00

query: Indicate its recorded pIC50; the compound in question is Cc1nc2cc(NC(=O)C3CC3)nc(-c3cnn(C)c3)n2n1
result: < 6.00

query: Report pIC50, nothing else, for this compound: Cc1nc2cc(NC(=O)C3CC3)nc(-c3ccc(S(N)(=O)=O)cc3)n2n1
result: < 6.00

query: Assign pIC50 to the following record: CNc1nc(-c2ccc(C)o2)n2nc(C)nc2c1Cl
result: < 6.00

query: Assign pIC50 to the following record: Cc1ccc(-c2nc(NC(=O)C3CC3)cc3nc(C4CCC4)nn23)o1
result: 7.00 to 8.00

query: Using the record for Cc1nc2nc(N[C@@H](C)c3cncc(F)c3)nc(C(=O)N3CC(NC(=O)NC4CCCC4)C3)c2s1 , state its measured pIC50.
result: > 7.00

query: Give the measured pIC50 for CC(C)c1nc2cc(NC(=O)C3CC3)nc(-c3ccco3)n2n1
result: > 8.00

query: Find the measured pIC50 of Cc1ccc(F)cc1-c1nc(N)c2nc(Cc3ccccc3)nn2c1C and report it.
result: 6.16

query: Name the recorded pIC50 of the compound listed here: COc1cccc2c1nc(N)n1nc(C3CC3c3cnn(CCO)c3)nc21 (stereo not drawn)
result: 6.93

query: Quickly give me recorded pIC50 for COc1cc(F)cc2c1nc(N)n1nc([C@@H]3CCCN(c4cn(C(C)C(C)(C)O)nc4C)C3)nc21 (single isomer, unassigned)
result: 6.87

query: Provide only the value of recorded pIC50 for Cc1nc2c(C(N)=O)c(N)nc(-c3ccc(C)o3)n2n1
result: 6.00 to 7.00

query: Fill in reported pIC50 for this entry: COc1cccc2c1nc(N)n1nc(C3(CO)CC3)nc21
result: 6.04

query: Report measured pIC50; entry is COc1cc(F)cc2c1nc(N)n1nc(C3CCCCN(c4cnn(CC(C)(C)O)c4)C3)nc21 (racemic)
result: 7.36

query: Complete the entry with pIC50 for Cc1nc2nc(N[C@@H](C)c3cccnc3)nc(C(=O)N3CC(NC(=O)c4ccccc4)C3)c2s1
result: 6.00 to 7.00

query: Input COc1cccc2c1nc(N)n1nc([C@H]3C[C@H](c4cccc(C(C)(C)O)c4)C3)nc21 , output reported pIC50.
result: 7.16

query: Assign pIC50 to the following record: COc1cc(F)cc2c1nc(N)n1nc(C3(F)CCCN(c4cnn(CC(C)(C)O)c4)C3)nc21 (single isomer, unassigned)
result: 6.25

query: Supply recorded pIC50 for Cc1ccc(-c2nc(NC(=O)C3CC3)cc3nc(C4CCCC4)nn23)o1 here.
result: 7.00 to 8.00
